Target: hFASN enzyme (full length) (Homo sapiens, UniProt P49327)
Construct: 10 μL hFASN enzyme (full length, 300 ng, purified in house); made in house
Sequence (P49327 whole entry): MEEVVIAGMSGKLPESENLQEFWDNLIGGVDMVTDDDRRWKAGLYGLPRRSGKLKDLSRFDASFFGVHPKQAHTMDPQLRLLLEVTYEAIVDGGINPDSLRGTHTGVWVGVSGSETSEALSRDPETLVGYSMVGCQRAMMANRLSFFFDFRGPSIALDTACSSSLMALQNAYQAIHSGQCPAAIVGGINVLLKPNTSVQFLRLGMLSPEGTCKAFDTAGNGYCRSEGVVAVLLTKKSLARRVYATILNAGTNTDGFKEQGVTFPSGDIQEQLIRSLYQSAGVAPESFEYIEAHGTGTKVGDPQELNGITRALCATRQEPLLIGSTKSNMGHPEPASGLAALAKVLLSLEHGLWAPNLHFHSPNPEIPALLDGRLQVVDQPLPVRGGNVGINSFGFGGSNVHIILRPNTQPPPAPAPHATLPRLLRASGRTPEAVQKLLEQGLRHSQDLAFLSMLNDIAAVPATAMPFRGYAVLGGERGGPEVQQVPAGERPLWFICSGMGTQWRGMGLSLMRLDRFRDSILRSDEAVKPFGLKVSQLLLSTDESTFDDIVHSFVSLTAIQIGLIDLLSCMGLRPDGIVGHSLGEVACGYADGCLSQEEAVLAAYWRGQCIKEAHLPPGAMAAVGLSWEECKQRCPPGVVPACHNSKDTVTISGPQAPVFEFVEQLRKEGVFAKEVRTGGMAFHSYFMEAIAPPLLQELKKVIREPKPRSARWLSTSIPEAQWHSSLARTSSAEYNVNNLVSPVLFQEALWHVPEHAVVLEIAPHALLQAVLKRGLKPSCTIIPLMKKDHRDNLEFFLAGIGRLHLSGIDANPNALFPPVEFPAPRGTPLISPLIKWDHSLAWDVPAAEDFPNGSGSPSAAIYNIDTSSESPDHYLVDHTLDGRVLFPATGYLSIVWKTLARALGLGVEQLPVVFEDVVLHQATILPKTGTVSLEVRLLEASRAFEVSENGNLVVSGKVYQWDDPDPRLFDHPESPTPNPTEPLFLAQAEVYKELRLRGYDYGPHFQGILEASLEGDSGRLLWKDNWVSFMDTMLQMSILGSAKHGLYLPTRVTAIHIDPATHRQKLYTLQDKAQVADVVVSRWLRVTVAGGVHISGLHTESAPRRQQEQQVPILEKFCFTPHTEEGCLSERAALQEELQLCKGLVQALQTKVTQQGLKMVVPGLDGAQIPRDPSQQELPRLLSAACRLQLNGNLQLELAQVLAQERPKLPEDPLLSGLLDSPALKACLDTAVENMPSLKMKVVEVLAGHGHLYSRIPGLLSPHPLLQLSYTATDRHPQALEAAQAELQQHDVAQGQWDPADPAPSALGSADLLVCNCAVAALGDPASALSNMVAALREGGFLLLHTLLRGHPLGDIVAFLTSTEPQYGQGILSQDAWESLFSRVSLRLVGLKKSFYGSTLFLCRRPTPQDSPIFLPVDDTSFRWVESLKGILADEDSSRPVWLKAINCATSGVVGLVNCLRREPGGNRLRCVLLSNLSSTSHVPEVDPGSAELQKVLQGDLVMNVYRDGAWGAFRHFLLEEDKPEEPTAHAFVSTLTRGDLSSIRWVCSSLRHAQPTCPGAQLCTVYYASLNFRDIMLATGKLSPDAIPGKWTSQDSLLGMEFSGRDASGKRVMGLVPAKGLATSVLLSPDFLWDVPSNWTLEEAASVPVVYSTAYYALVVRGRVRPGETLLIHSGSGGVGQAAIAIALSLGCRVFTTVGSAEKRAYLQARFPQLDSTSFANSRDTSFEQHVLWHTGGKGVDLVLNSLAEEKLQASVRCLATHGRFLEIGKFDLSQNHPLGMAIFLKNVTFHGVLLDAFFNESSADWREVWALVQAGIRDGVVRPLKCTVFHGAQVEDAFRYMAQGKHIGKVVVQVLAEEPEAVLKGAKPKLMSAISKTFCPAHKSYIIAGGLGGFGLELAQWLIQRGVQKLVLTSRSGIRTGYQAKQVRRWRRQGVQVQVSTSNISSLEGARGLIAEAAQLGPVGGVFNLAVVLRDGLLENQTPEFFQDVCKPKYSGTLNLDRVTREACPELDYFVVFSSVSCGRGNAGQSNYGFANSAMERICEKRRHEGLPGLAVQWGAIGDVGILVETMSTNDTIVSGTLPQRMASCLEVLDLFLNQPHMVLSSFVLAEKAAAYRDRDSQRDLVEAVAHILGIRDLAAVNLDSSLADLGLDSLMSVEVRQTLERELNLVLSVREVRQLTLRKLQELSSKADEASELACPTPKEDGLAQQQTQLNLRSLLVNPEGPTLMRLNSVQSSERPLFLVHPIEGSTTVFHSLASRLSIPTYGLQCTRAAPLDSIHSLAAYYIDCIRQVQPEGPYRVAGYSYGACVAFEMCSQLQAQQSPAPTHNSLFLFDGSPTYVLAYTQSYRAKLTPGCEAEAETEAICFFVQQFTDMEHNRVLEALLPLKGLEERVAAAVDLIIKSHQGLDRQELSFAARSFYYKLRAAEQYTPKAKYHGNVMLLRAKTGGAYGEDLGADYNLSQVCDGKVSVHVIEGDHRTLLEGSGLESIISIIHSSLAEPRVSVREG
Assay: Fatty Acid Synthase (FASN) inhibition scintillation proximity assay
Format: biochemical
Conditions: read-out: Human FASN pIC50 (converted)
Reported Endpoint: IC50 (µM)
Supply the numeric figure in µM, leaving out any unit text.

{"columns": ["Smiles Notation", "Observed Measurement"],
 "data": [
  ["COc1cccc2ccc(-c3ccc(C4=NC5(CC5)C(=O)N4CC4CN(C(=O)C5CC5)C4)c(F)c3)cc12", 0.0661]
]}

Query block: Param readout = IC50; param system = hFASN enzyme (full length) (Homo sapiens, UniProt P49327); param query = `O=C1Cc2ccc(-c3ccc(C4=NC5(CC5)C(=O)N4C[C@@H]4CCN(C(=O)C5CC5)C4)cc3)cc2N1` ; response: value
Result block: 0.141

Query block: Param readout = IC50; param system = hFASN enzyme (full length) (Homo sapiens, UniProt P49327); param query = `O=C(C1CC1)N1CC[C@@H](CN2C(=O)C3(CCCC3)N=C2c2ccc(-c3cccc(-c4cc[nH]n4)c3)cc2)C1` ; response: value
Result block: 0.537

Query block: Param readout = IC50; param system = hFASN enzyme (full length) (Homo sapiens, UniProt P49327); param query = `O=C(N1CC(CN2C(=O)C3(CC3)N=C2c2ccc(-c3ccc4cc(F)ccc4c3)cc2F)C1)C1(O)CC1` ; response: value
Result block: 0.0234

Query block: Param readout = IC50; param system = hFASN enzyme (full length) (Homo sapiens, UniProt P49327); param query = `Cc1cc2cc(-c3ccc(C4=NC5(CC5)C(=O)N4C[C@@H]4CCN(C(=O)C5(O)CC5)C4)c(F)c3)ccc2o1` ; response: value
Result block: 0.0302

###

Molecular target: hFASN enzyme (full length) (Homo sapiens, UniProt P49327)
Construct: 10 μL hFASN enzyme (full length, 300 ng, purified in house); made in house
Experiment: Fatty Acid Synthase (FASN) inhibition scintillation proximity assay
Assay type: biochemical
Conditions: read-out: Human FASN % inhibition @ 10 μM, 10 μM test compound
Class 1: inhibition at 10 µM at least 80%. Class -1: inhibition at 10 µM below 80%.

// known answers, use as guide
{"columns": ["Molecule", "Cat"],
 "data": [
  ["O=C(C1CC1)N1CC(CN2C(=O)C3(CC3)N=C2c2ccc(-c3cnc4ncccc4c3)cc2)C1 [compound 799]", -1],
  ["Cc1cc(-c2cccc3nn(C)cc23)ccc1C1=NC2(CC2)C(=O)N1CC1CN(C(=O)C2(C)CC2)C1 [compound 598]", 1]
]}

Query block: Could you tell me if the measured inhibition at 10 µM of CS(=O)(=O)c1cccc(-c2ccc(C3=NC4(CC4)C(=O)N3C[C@@H]3CCN(C(=O)C4CC4)C3)c(F)c2)c1 [compound 634] reaches 80% or more?
Result block: -1

Query block: Could you tell me if the measured inhibition at 10 µM of O=C(C1CC1)N1CCC(CN2C(=O)C3(CC3)N=C2c2ccc(-c3ccc(O)cc3)cc2)CC1 [compound 55] reaches 80% or more?
Result block: -1

Query block: Could you tell me if the measured inhibition at 10 µM of Cc1cc(-c2cccc(SC3CC3)c2)ccc1C1=NC2(CC2)C(=O)N1CC1CN(C(=O)C2CC2)C1 [compound 650] reaches 80% or more?
Result block: 1

Query block: Could you tell me if the measured inhibition at 10 µM of Cn1c(-c2ccc(C3=NC4(CC4)C(=O)N3CC3CN(C(=O)C4CC4)C3)c(F)c2)nc2ccc(F)cc21 [compound 653] reaches 80% or more?
Result block: -1

Query block: Could you tell me if the measured inhibition at 10 µM of Cn1ncc2cc(-c3ccc(C4=NC5(CCOCC5)C(=O)N4CC4CN(C(=O)C5CC5)C4)cc3)ccc21 [compound 706] reaches 80% or more?
Result block: -1

Query block: Could you tell me if the measured inhibition at 10 µM of Cc1cc(-c2ccc3oc(C)c(C)c3c2)ccc1C1=NC2(CC2)C(=O)N1C[C@@H]1CCN(C(=O)C2CC2)C1 [compound 282] reaches 80% or more?
Result block: 1

Query block: Could you tell me if the measured inhibition at 10 µM of O=C(C1CC1)N1CC[C@@H](CN2C(=O)C3(CC3)N=C2c2ccc(-c3ccc4ccncc4c3)cc2)C1 [compound 30] reaches 80% or more?
Result block: 1

Query block: Could you tell me if the measured inhibition at 10 µM of O=C(C1CC1)N1CC[C@@H](CN2C(=O)C3(CCCC3)N=C2c2ccc(-c3ccnc4ccccc34)cc2)C1 [compound 22] reaches 80% or more?
Result block: 1

Query block: Could you tell me if the measured inhibition at 10 µM of Cn1ncc2cc(-c3ccc(C4=NC5(CCOCC5)C(=O)N4C[C@@H]4CCN(C(=O)N5CCCC5)C4)cc3)ccc21 [compound 675] reaches 80% or more?
Result block: -1

Query block: Could you tell me if the measured inhibition at 10 µM of N#Cc1cc2cc(-c3ccc(C4=NC5(CC5)C(=O)N4C[C@@H]4CCN(C(=O)C5CC5)C4)cc3)ccc2o1 [compound 256] reaches 80% or more?
Result block: 1

###

Reported inhibition at 10 µM is given for each of the following molecules.
Target: hFASN enzyme (full length) (Homo sapiens, UniProt P49327)
Construct: 10 μL hFASN enzyme (full length, 300 ng, purified in house); made in house
Assay: Fatty Acid Synthase (FASN) inhibition scintillation proximity assay
Type: biochemical
Conditions: read-out: Human FASN % inhibition @ 10 μM, 10 μM test compound
Supply the numeric figure in %, leaving out any unit text.

Query block: inhibition at 10 µM lookup needed for `Cc1cc2cc(-c3ccc(C4=NC5(CCN(C(C)C)CC5)C(=O)N4C[C@@H]4CCN(C(=O)C5CC5)C4)cc3)ccc2o1` , thanks.
Result block: 80.4

Query block: inhibition at 10 µM lookup needed for `O=C(C1CC1)N1CCC[C@H](CN2C(=O)C3(CC3)N=C2c2ccc(-c3ccc4occc4c3)cc2)C1` , thanks.
Result block: 2

Query block: inhibition at 10 µM lookup needed for `Cc1nc2ccc(-c3ccc(C4=NC5(CC5)C(=O)N4CC4CN(C(=O)C5CC5)C4)c(F)c3)cc2s1` , thanks.
Result block: 96

Query block: inhibition at 10 µM lookup needed for `Cc1cc(C)c2ccc(-c3ccc(C4=NC5(CC5)C(=O)N4CC4CN(C(=O)C5CC5)C4)cc3)cc2n1` , thanks.
Result block: 65

Query block: inhibition at 10 µM lookup needed for `Cn1cc(-c2ccc(-c3ccc(C4=NC5(CC5)C(=O)N4CC4CN(C(=O)C5CC5)C4)c(F)c3)cc2)cn1` , thanks.
Result block: 102

###

System: LNCaP-Vancouver prostate cells
Assay: In vitro LNCaP Vancouver prostate cell proliferation assay in lipid reduced medium
Assay type: cell-based
Settings: read-out: pIC50 LNCaP_Vancouver prostate cell (converted)
Reported IC50 is given for each of the following molecules.
Supply the numeric figure in nM, leaving out any unit text.

Answered examples (2):
{"columns": ["Molecule", "Endpoint Unit", "IC50"],
 "data": [
  ["COC(=O)N1CC2(C1)N=C(c1ccc(-c3ccc(-c4cnn(C)c4)cc3)cc1)N(C[C@@H]1CCN(C(=O)[C@H]3CCCO3)C1)C2=O [compound 727]", "nM", 2400],
  ["CCC(=O)N1CC(CN2C(=O)C3(CC3)N=C2c2ccc(-c3ccc4c(cnn4C)c3)cc2C)C1 [compound 471]", "nM", 1290]
]}

Now for a further molecule.
Query block: Param readout = IC50; param system = LNCaP-Vancouver prostate cells; param query = O=C(C1CC1)N1CC[C@@H](CN2C(=O)C3(CC3)N=C2c2ccc(-c3ccc4ncccc4c3)cc2)C1 [compound 455] ; response: value
Result block: 2140

###

Reported log10(IC50) is given for each of the following compounds.
Molecular target: Fatty Acid Synthase Keto-reductase Domain (FASN KR) (Homo sapiens, UniProt P49327)
Sequence (P49327 whole entry, the tested form may be a part): as the sequence (P49327 whole entry) above
Test: Fatty Acid Synthase keto-reductase domain (FASN KR) inhibition, NADPH oxidation at 340 nm
Short version: log10 scale, IC50, nM.

Answered examples (6):
{"columns": ["Compound", "log10(IC50)"],
 "data": [
  ["N#Cc1cc2cc(-c3ccc(C4=NC5(CC5)C(=O)N4C[C@@H]4CCN(C(=O)C5CC5)C4)c(F)c3)ccc2o1", 1.70],
  ["Cc1cc(-c2ccc3cc(C#N)ccc3c2)ccc1C1=NC2(CC2)C(=O)N1CC1CN(C(=O)C2CCO2)C1 (stereo not shown)", 1.89],
  ["O=C(C1CC1)N1CC(CN2C(=O)C3(CCOC3)N=C2c2ccc(-c3ccc4cccnc4c3)cc2)C1 (stereo not shown)", 3.18],
  ["COCCN1CCC2(CC1)N=C(c1ccc(-c3ccc4[nH]ccc4c3)cc1)N(CC1CN(C(=O)C3CC3)C1)C2=O", 2.80],
  ["Cc1cc(-c2ccc(-c3cnn(C4CC4)c3)cc2)ccc1C1=NC2(CC2)C(=O)N1CC1CN(C(=O)C2(C)CC2)C1", 1.90],
  ["O=C(C1CC1)N1CC[C@H](CN2C(=O)C3(CC3)N=C2c2ccc(-c3ccc4sccc4c3)cc2)C1", 2.30]
]}

Now for a further compound.
Query block: log10(IC50) lookup needed for `Cc1cc2cc(-c3ccc(C4=NC5(CC5)C(=O)N4CC4CN(C(=O)C5CC5)C4)cc3)ccc2s1` , thanks.
Result block: 2.65
